study_target: ICE (Homo sapiens)
Sequence (P29466 120-297 limits assumed): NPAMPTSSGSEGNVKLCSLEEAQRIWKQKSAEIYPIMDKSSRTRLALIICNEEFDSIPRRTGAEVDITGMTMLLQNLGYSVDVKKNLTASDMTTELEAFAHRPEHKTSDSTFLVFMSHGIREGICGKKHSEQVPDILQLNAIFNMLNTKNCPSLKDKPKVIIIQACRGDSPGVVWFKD
Sequence (P29466 317-404 limits assumed): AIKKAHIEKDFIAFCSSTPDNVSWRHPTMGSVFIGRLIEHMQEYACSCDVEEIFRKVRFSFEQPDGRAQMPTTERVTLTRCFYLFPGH
test_name: Enzyme assay with UV-visible substrate (Succinyl-Tyr-Val-Ala-Asp-pNitroanilide)
Assay type: biochemical
recorded_conditions: Example 4 table
readout_name: Ki (µM)

[[record]]
molecule = "O=C[C@H](CC(=O)O)NC(=O)Cn1c(CCc2ccccc2)ccc(NC(=O)CCc2ccccc2)c1=O [Compound 54c]"
readout_name = "Ki"
reading = 1.2

[[record]]
molecule = "CC(=O)N[C@@H](Cc1ccc(O)cc1)C(=O)Nc1ccc(Cc2ccccc2)n(CC(=O)N[C@H](C=O)CC(=O)O)c1=O [Compound 54i]"
readout_name = "Ki"
reading = 0.054

[[record]]
molecule = "O=C[C@H](CC(=O)O)NC(=O)[C@@H]1CCCN2C(=O)CC[C@H](NC(=O)CCc3ccccc3)C(=O)N12 [Compound 47a]"
readout_name = "Ki"
reading = 0.019

[[record]]
molecule = "COc1cccc2nc(C(=O)[C@H](CC(=O)O)NC(=O)[C@H](C)NC(=O)[C@@H](NC(=O)[C@H](Cc3ccc(O)cc3)NC(C)=O)C(C)C)oc12 [Compound 69a]"
readout_name = "Ki"
reading = 0.011


meta.source: patent US20110015371A1
